Please provide measured Her2 level for the entries that follow.
molecular target: Receptor tyrosine-protein kinase erbB-2 (Homo sapiens) (UniProt P04626); assay: reducers of endogenous Her2 protein level, primary screen, SKBR3 breast tumor cells, AlphaScreen, ATP viability (AID 461); settings: 18-24 h, at 10 µM, active compounds read low;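 further: lower value means less Her2 protein in the cells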
Sequence (P04626 whole entry, looked up): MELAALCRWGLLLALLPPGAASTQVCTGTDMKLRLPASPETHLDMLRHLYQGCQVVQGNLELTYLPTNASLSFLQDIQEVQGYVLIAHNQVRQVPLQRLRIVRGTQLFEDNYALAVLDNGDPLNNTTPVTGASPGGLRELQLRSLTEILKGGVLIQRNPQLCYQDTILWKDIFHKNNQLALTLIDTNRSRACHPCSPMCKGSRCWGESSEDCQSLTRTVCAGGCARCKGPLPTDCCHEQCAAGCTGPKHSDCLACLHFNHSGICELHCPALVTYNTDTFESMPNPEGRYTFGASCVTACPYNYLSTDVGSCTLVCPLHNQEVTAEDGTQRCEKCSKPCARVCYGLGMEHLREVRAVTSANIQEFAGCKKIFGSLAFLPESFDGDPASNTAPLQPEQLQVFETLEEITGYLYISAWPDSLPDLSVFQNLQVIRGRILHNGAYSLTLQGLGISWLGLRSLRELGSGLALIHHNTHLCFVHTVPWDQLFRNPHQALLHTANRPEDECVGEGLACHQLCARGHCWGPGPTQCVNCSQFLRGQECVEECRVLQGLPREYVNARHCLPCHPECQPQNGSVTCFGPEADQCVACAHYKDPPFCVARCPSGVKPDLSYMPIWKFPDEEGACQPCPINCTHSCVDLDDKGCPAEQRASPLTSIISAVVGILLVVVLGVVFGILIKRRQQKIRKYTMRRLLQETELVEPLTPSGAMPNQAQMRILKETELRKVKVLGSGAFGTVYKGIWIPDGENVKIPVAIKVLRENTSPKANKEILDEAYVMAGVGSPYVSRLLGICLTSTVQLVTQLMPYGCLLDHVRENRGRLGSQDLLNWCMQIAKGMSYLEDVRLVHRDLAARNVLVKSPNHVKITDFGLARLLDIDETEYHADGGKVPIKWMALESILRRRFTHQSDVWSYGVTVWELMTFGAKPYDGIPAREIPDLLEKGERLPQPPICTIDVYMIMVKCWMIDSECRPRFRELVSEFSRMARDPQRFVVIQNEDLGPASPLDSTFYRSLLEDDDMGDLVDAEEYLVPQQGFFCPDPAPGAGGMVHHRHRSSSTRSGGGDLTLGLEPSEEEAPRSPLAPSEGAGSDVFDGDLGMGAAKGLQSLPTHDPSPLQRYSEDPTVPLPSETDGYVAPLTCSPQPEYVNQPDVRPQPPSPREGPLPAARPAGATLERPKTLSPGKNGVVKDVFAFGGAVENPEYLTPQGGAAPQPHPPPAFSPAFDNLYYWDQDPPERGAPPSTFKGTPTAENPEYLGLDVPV
Give bare numbers, in %.

# compound, units_symbol, Her2 level
records = [
    ("CC(=O)Nc1ccc(OC(=O)c2cccnc2)cc1", "%", 116),
    ("COc1ccc(-c2onc(C)c2-c2ccccc2)c(O)c1", "%", 73),
]

Now look at this one.
Specify Her2 level for CCNC(=O)C1CC(=O)N(Cc2ccc3c(c2)OCO3)C(=Nc2ccc(F)cc2)S1 (stereo not drawn) , system Receptor tyrosine-protein kinase erbB-2 (Homo sapiens) (UniProt P04626). 112

---

assay: growth inhibitors of H69AR lung tumor, primary screen, human, duplicate replicates (AID 580); details: H69AR lung tumor cells viability, ATP luminescence, 72 h; at 10 µM; active compounds read low;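 further: 100% = mean luminescence of untreated wells and 0% = no signal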
Active and inactive are the calls of the source.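 How the source made its calls: active means viability at or under a set limit in both replicates, limit being median viability minus 3 SD (cut at about 48% in these data, passing the limit was not always enough); inconclusive means at or under the limit in just one replicate; inactive means at or above the limit in both replicates.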
measurement_name: viability

As a guide, the following entries are already answered.
# molecule, viability
measured = [
    ("Cc1oc2c(CN3CCOCC3)c(O)ccc2c(=O)c1-c1ccc(Br)cc1", "90.4% (inactive)"),
    ("CCOC(=O)c1c(C)c(C(=O)NCC2CCCO2)c(C)n1C (stereo not given)", "92.2% (inactive)"),
    ("CCOC(=O)c1cc(C)n(CCCN2CCOCC2)c1C", "91.1% (inactive)"),
    ("CCc1ccc(CNCc2cccnc2)cc1", "92.4% (inactive)"),
]

Now look at this one.
Look up and state reported viability for CCSc1nnc(NC(=O)C2CCCN(S(=O)(=O)c3cnc[nH]3)C2)s1 (stereo not given) 91.3% (inactive)

---

experiment: viability gain of MRP-1-high H69AR cells under doxorubicin, pilot screen, MRP-1 activator project, CellTiter-Glo, duplicate (AID 807); conditions: H69AR viability with doxorubicin, CellTiter-Glo luminescence; at 10 µM; active compounds read high;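 further: compound pretreatment 18-22 h then 72 h combined with doxorubicin; 0% = doxorubicin alone and 100% = vehicle without doxorubicin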
Please provide measured viability increase for the entries that follow.
One number for each entry, in %.

As a guide, the following entries are already answered.
# compound, units_symbol, viability increase
measured = [
    ("CC(C)c1nc(SCC(=O)N2CCOCC2)c2c(=O)n(C)c(=O)n(C)c2n1", "%", -1.75),
    ("Cc1ccc(S(=O)(=O)N2CCN(C(=O)CCC(=O)N3CCc4ccccc43)CC2)cc1", "%", -1.16),
    ("Cc1nnc2ccc(N3CCN(C(=O)c4ccccc4)CC3)nn12", "%", 0.13),
    ("CN1CCN(Cc2c(O)ccc3c(=O)c(Oc4ccccc4Cl)c(C(F)(F)F)oc23)CC1", "%", -0.67),
]

// for each compound in input: emit viability increase
1. CCN1C=C(C(=O)OC)C(c2cccc(C)c2)C(C(=O)OC)=C1
2. COc1ccc(-n2c(Cc3cc(=O)[nH]c(=O)[nH]3)nnc2SCc2ccccc2)cc1
3. COCCOC(=O)C1=C(C)NC2=C(C(=O)CCC2)C1c1ccc2c(c1)OCO2 (stereo not drawn)
4. CC(C)OC(=O)C1C2C=CC3(CN(C(C)c4ccc(Br)cc4)C(=O)C13)O2 (stereo not drawn)
5. CC(C)CC(/C(O)=C(\C#N)c1nc2ccccc2[nH]1)N1C(=O)c2ccccc2C1=O (stereo not drawn)

[-3.43, -0.7, -2.23, -2.07, -2.01]

// for each compound in input: emit viability increase
1. Cc1nc(N2CCN(Cc3ccc4c(c3)OCO4)CC2)c2oc3ccccc3c2n1
2. COCCSc1nc2c(c(=O)[nH]c(=O)n2C)n1Cc1cccc(C)c1

1: -4.93; 2: -1.81

// for each compound in input: emit viability increase
1. CCCCCn1c(=O)[nH]c2cc(C(=O)NCc3ccc4c(c3)OCO4)ccc2c1=O
2. CCO/C=N/c1c(C#N)c(CC#N)nn1-c1ccccc1

1: -6.7; 2: -1.36
